What growth was measured for each of the following?
Tested on: 786-0 renal
Assay: NCI-60 one-dose screen, 48 h (100 = growth as untreated, 0 = no growth, -100 = all killed)
Conditions: 10 µM
The panel holds about 83,000 compounds, 20% with a hit somewhere; the sample as a whole holds those more often.
Numbers only, in %.

Please review the entries below; each comes with its answer.
molecule | unit.text | growth
COc1cc2nc(Nc3cccc(NC(C)=O)c3)nc(N)c2cc1OC | % | 94.7
COC(=O)c1ccc(=O)oc1 | % | 99.4
CC(C)(Cl)CCC1=C(Cl)C(=O)c2ccccc2C1=O | % | 101

Hi team, please reply with growth for each item in this list.
1. COc1ccc(N=C2C(=Nc3ccc(OC)cc3)N(c3ccc(N(C)C)cc3)C(=S)N2c2ccc(OC)cc2)cc1
2. COc1cc(C(=O)N2CCN(c3ccccc3OC)CC2)c(N)cc1OCCCN1CCN(c2ccccc2OC)CC1
3. COc1ccc([N+](=O)[O-])c(C(=O)O)c1

1. 12.3
2. 96
3. 101

These data points were gathered from PubChem BioAssay (NCI).
